Source listed as ChEMBL document CHEMBL5291721.

Let's go through some recorded AC50 values for D(3) dopamine receptor (Homo sapiens) together.
ASSAY READOUT: AC50

compound=CC(C)COC(=O)OCN1C(=O)CN(CCN2CC(=O)N(COC(=O)OCC(C)C)C(=O)C2)CC1=O measured="> 30 µM"
compound=CCOc1ccc(Cc2cc([C@@H]3O[C@H](CO)[C@@H](O)[C@H](O)[C@H]3O)ccc2Cl)cc1 measured="> 30 µM"
compound=CC(=O)OCC1=C(C(=O)O)N2C(=O)[C@@H](NC(=O)[C@H](N)c3ccccc3)[C@H]2SC1 measured="> 30 µM"
compound="C=CCc1ccccc1OCC(O)CNC(C)C (centres undefined)" measured="> 0.3 µM"

###

Items are presented alongside their recorded AC50.
ASSAY SYSTEM: Alpha-2A adrenergic receptor (Homo sapiens, UniProt P08913); also: assay procedure not described here
Sequence (P08913 whole entry): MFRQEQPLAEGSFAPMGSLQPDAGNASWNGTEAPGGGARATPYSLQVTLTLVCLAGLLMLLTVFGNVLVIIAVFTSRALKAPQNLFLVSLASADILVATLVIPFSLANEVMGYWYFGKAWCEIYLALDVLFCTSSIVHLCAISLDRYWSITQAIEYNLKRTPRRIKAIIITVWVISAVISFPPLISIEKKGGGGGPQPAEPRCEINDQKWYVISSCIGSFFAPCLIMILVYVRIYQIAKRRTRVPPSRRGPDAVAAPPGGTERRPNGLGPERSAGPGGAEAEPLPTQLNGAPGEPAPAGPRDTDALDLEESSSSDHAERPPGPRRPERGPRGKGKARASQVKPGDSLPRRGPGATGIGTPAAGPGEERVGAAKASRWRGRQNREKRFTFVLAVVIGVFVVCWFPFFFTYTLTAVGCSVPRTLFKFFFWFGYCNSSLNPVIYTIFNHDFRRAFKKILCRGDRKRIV
Assay type: functional, cell-based
ASSAY READOUT: AC50

compound="CC1=C(C(=O)O)N2C(=O)[C@@H](NC(=O)[C@H](N)c3ccccc3)[C@H]2SC1 [CEPHALEXIN ANHYDROUS]" assay_readout=AC50 measured="> 30 µM"
compound="O=C1C(O)=C([C@H]2CC[C@H](c3ccc(Cl)cc3)CC2)C(=O)c2ccccc21 [ATOVAQUONE]" assay_readout=AC50 measured="> 30 µM"
compound="COc1ccc(C(=O)Nc2ccccc2CCC2CCCCN2C)cc1 (stereo not given) [ENCAINIDE]" assay_readout=AC50 measured="> 10 µM"
compound="Cc1nc([N+](=O)[O-])cn1-c1ccc([N+](=O)[O-])cc1 [NITREFAZOLE]" assay_readout=AC50 measured="> 30 µM"
compound="CCC1(CC)C(=O)NCC(C)C1=O (stereo not given) [METHYPRYLON]" assay_readout=AC50 measured="> 30 µM"
compound="CC(CC1c2ccccc2CCc2ccccc21)CN(C)C (stereo not given) [BUTRIPTYLINE]" assay_readout=AC50 measured="> 30 µM"
compound="c1ccc([C@H]2CN3CCSC3=N2)cc1 [LEVAMISOLE]" assay_readout=AC50 measured="> 30 µM"
compound="C[C@H]1CNCCc2ccc(Cl)cc21 [LORCASERIN]" assay_readout=AC50 measured="> 30 µM"
compound="CN1C(=O)C(O)N=C(c2ccccc2Cl)c2cc(Cl)ccc21 (stereo not given) [LORMETAZEPAM]" assay_readout=AC50 measured="16 µM"
compound="CCCCCCOc1ccccc1C(N)=O [EXALAMIDE]" assay_readout=AC50 measured="13 µM"

###

Let's go through some recorded AC50 values for Neuronal acetylcholine receptor subunit alpha-4 (Homo sapiens) together.
ASSAY READOUT: AC50

molecule="CCCN1C[C@H](CSC)C[C@@H]2c3cccc4[nH]cc(c34)C[C@H]21 [PERGOLIDE]" assay_system="Neuronal acetylcholine receptor subunit alpha-4 (Homo sapiens)" measured="> 30 µM"
molecule="C#C[C@]1(O)CC[C@H]2[C@@H]3CCc4cc(OC5CCCC5)ccc4[C@H]3CC[C@@]21C [QUINESTROL]" assay_system="Neuronal acetylcholine receptor subunit alpha-4 (Homo sapiens)" measured="> 10 µM"
molecule="C=CCN1C[C@H](C(=O)N(CCCN(C)C)C(=O)NCC)C[C@@H]2c3cccc4[nH]cc(c34)C[C@H]21 [CABERGOLINE]" assay_system="Neuronal acetylcholine receptor subunit alpha-4 (Homo sapiens)" measured="> 10 µM"
molecule="CC(C)(C)NCC(O)COc1cccc2c1CCC(=O)N2 (configuration not stated) [CARTEOLOL]" assay_system="Neuronal acetylcholine receptor subunit alpha-4 (Homo sapiens)" measured="> 10 µM"
molecule="CNC(=O)c1ccccc1Sc1ccc2c(/C=C/c3ccccn3)n[nH]c2c1 [AXITINIB]" assay_system="Neuronal acetylcholine receptor subunit alpha-4 (Homo sapiens)" measured="> 30 µM"
molecule="COc1ccc(CC(C)(C)NC[C@H](O)c2cc(O)cc3c2OCC(=O)N3)cc1 [OLODATEROL]" assay_system="Neuronal acetylcholine receptor subunit alpha-4 (Homo sapiens)" measured="> 30 µM"
molecule="NCC[C@H](O)C(=O)N[C@@H]1C[C@H](N)[C@@H](O[C@H]2O[C@H](CN)[C@@H](O)[C@H](O)[C@H]2O)[C@H](O)[C@H]1O[C@H]1O[C@H](CO)[C@@H](O)[C@H](N)[C@H]1O [AMIKACIN]" assay_system="Neuronal acetylcholine receptor subunit alpha-4 (Homo sapiens)" measured="> 10 µM"
